Value source: paper PMC5700166

Target: GST-Aq-NF-kB (Amphimedon queenslandica, UniProt A9Y5G7 2-389)
Sequence: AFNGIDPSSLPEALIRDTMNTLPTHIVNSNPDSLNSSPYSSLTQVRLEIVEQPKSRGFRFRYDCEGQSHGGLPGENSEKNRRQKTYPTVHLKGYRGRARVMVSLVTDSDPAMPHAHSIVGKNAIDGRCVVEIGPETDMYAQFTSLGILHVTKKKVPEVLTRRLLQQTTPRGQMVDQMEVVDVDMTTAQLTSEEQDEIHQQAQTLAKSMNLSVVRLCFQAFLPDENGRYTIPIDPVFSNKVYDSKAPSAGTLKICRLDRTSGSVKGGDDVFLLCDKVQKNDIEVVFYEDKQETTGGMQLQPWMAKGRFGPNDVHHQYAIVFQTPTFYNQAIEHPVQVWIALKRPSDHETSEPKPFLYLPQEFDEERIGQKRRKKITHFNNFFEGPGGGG
Experiment: protein-binding microarray (PBM); PBM: ~300 nM protein, 6 mM HEPES pH 7.8, 80 mM KCl, 0.5 mM EDTA, 0.5 mM EGTA, 6% glycerol, 35 ng/ul poly-dIdC, 1% milk, 1 h, room temperature; Ap Aiptasia and Nv Nematostella (sea anemones) / Co Capsaspora / Aq Amphimedon (sponge) / Dm Drosophila / Hu human; RHD is the Rel homology domain; high values mean tight binding
Settings: dsDNA, one strand shown
Classify as follows. Reported binding signal greater than or equal to 5 z-score: Satisfied. Reported binding signal below: Not satisfied.

[[record]]
chain_sequence = "CCGATTAACATCAAGGGATTCCCTGATGTTAATCGGGTCTTGATTCGCTTGACGCTGCTG"
label = "Satisfied"

[[record]]
chain_sequence = "CCGATTAACATCAGGTGATCACCTGATGTTAATCGGGTCTTGATTCGCTTGACGCTGCTG"
label = "Not satisfied"

[[record]]
chain_sequence = "CCGATTAACATCAGGGGAAAATATGATGTTAATCGGGTCTTGATTCGCTTGACGCTGCTG"
label = "Satisfied"

[[record]]
chain_sequence = "CCGATTAACATCAATTCTCCCCCTGATGTTAATCGGGTCTTGATTCGCTTGACGCTGCTG"
label = "Satisfied"

[[record]]
chain_sequence = "CCGATTAACATCACGGAGTTCCCTGATGTTAATCGGGTCTTGATTCGCTTGACGCTGCTG"
label = "Not satisfied"

[[record]]
chain_sequence = "CCGATTAACATCAAATAACCCCCTGATGTTAATCGGGTCTTGATTCGCTTGACGCTGCTG"
label = "Satisfied"

[[record]]
chain_sequence = "CCGATTAACATCACAGTACCCCCTGATGTTAATCGGGTCTTGATTCGCTTGACGCTGCTG"
label = "Not satisfied"

[[record]]
chain_sequence = "CCGATTAACATCAGATAAACCCCTGATGTTAATCGGGTCTTGATTCGCTTGACGCTGCTG"
label = "Not satisfied"

[[record]]
chain_sequence = "CCGATTAACATCAAGGGAACTCCTGATGTTAATCGGGTCTTGATTCGCTTGACGCTGCTG"
label = "Not satisfied"

[[record]]
chain_sequence = "CCGATTAACATCAAAACTCCCCATGATGTTAATCGGGTCTTGATTCGCTTGACGCTGCTG"
label = "Satisfied"

[[record]]
chain_sequence = "CCGATTAACATCAGGGGAAAACATGATGTTAATCGGGTCTTGATTCGCTTGACGCTGCTG"
label = "Satisfied"

[[record]]
chain_sequence = "CCGATTAACATCACTTTACCCCCTGATGTTAATCGGGTCTTGATTCGCTTGACGCTGCTG"
label = "Not satisfied"

